Please provide measured folding stability dG unfold for the entries that follow.
assay: folding stability dG unfold from trypsin proteolysis; higher = more stable
Note: unit kcal/mol is implicit; provide only the numeric part.

Tell me the measured folding stability dG unfold of SAGGSAGGPLRIEIEIKIEIFPFPDGWYLIRMTIKIKVYNPGEDGQPIAEYEITFYFIIPPGDFSAGGSAGG [r6_60_TrROS] , please.
4.25

Tell me the measured folding stability dG unfold of SAGGMPLVELEIVLPKEELEKLEEALRKLGYKVVKIEVVEYDPENDLVRVRIVLEKPMTLEELKKALKSAGG [r13_725_TrROS_Hall] , please.
3.72

Tell me the measured folding stability dG unfold of SAGGSAGGSAGMEPPEIKVEVSSDPTPSGMKVETIKDLGKGKTIIVLKPEDGSVSTSTLESAGGSAGGSAGG [r11_55_JUSTAS] , please.
-0.0544

Tell me the measured folding stability dG unfold of SAGGPYYEWEIKLPDNKTISITMRRNPENGRPQHTVTIHDPEKGKPVKEHPFDSPEEAEELIEEGLLSAGGS [r8_450_TrROS] , please.
-0.0517

Tell me the measured folding stability dG unfold of SAGGSAGGSAGGSMYIKIPGEPGDLREVVIEGKKVKVTPDANNPDKVTYTLPDGTKIALSAGGSAGGSAGGS [r4_488_JUSTAS] , please.
0.117

Tell me the measured folding stability dG unfold of SAGGSAKKKIKIKVKNKDGSVYELEFDEENGIVKITYKDGKKEELSVEELKKLPLPKNITEVEIVPSAGGSA [r15_1043_TrROS_Hall] , please.
1.57

Tell me the measured folding stability dG unfold of SAGGVLPSDPVTVTVTIPVPAANAETDGRLPPQPQTINLEIGGPSEEAIRALLEALFPPGTEYEILLSAGGS [r16_282_JUSTAS] , please.
1.77

----------
assay: folding stability dG unfold from chymotrypsin proteolysis; higher = more stable
MEASURE: folding stability dG unfold (kcal/mol)
Note: unit kcal/mol is implicit; provide only the numeric part.

Tell me the measured folding stability dG unfold of SAGGSAGGSAGDENEKPKPKMQMKMIQIKFPPEDLPELAEEFGIDSVHIMPNGSLFIMVYSAGGSAGGSAGG [r11_64_TrROS] , please.
1.48

Tell me the measured folding stability dG unfold of SAPKLEIEEVHVNPNDGMVMITFQIDNLPPGLKITIKPKNGKPRRWTGEPGKPIMFMIPPGVDDIEIEWSAG [r14_671_TrROS] , please.
2.06

Tell me the measured folding stability dG unfold of SAGGKEKYKIKIYNKKTGKEYEFEIPLDEIVKYDKKNKKIYIKLKNGKKLEFKSLEDIVKIEIEKLPSAGGS [r8_111_TrROS_Hall] , please.
3.48

Tell me the measured folding stability dG unfold of SMNPIGNPITLPDGTTITIIPDLGLILIYDPETGTFIARLILVDENGIPHIFPFIGKIDPETGEIIEIDPSA [r9_122_TrMRF] , please.
4.13

Tell me the measured folding stability dG unfold of SAGGSAGGSVKPGQEIEVRVELTYDEETGELTIRREVVNKETGELIAEEEITISLEDLPPELLSAGGSAGGS [r12_145_TrROS_Hall] , please.
1.51

Tell me the measured folding stability dG unfold of SAGGSAKKYIVLAKIKEVKVTKTYKTKNGKKVKVTVKVEIKVEPVKVFKIKKDKNGNWKIEPGEVLSAGGSA [r15_162_TrROS_Hall] , please.
2.88

Tell me the measured folding stability dG unfold of SAGMVRIETYTHPDGTLRLVVYRPETGERAVFEFPLEDPEKFREAVEELAERLREEGFPVEVDIRPTLPSAG [r5_815_TrMRF] , please.
4.3

----------
assay: folding stability dG unfold from chymotrypsin proteolysis; higher = more stable
MEASURE: folding stability dG unfold (kcal/mol)
Note: unit kcal/mol is implicit; provide only the numeric part.

Tell me the measured folding stability dG unfold of SAGGSAGGSAGGSVEIRDARIELGDNTLRIEISFPDGGTRRIEIEVEPVPPLPPSLLDRSAGGSAGGSAGGS [r4_372_TrMRF] , please.
0.109

Tell me the measured folding stability dG unfold of SAGGLPGLSAEELARRLAERLREALAAAGYTVEIELTVEITVTDEDGRTRTFTFTLRIRVEPPPPPPSAGGS [r16_550_TrROS_Hall] , please.
5.15

Tell me the measured folding stability dG unfold of SAGGSAGGSALPPGEPVEFPWRIKMGGEEHDVKRTVYRDPDGNVKLNIEIPMPPGNFEIEPVSAGGSAGGSA [r18_428_TrROS] , please.
0.206

Tell me the measured folding stability dG unfold of SAGGMEEILKKLGVKKGDKVKIKIKVEKDGKTETVEIEVPVENLEDILKKLGLSKDQVKITEIKVEKESAGG [r13_681_TrROS_Hall] , please.
3.84

Tell me the measured folding stability dG unfold of SAGGSAGGSAPVAYTITITYRDPDGSTRTLTLTFPNLTPEEAKEAAEALPIPASVVSIDITKASAGGSAGGS [r12_886_JUSTAS] , please.
3.75

Tell me the measured folding stability dG unfold of SAGGSAGGSAGGSGPPHMRTTNEVTITLDGTVVSGSTPLPESLPPGVETYTTETYLPPLSAGGSAGGSAGGS [r4_436_JUSTAS] , please.
-0.308

Tell me the measured folding stability dG unfold of SAGGSAGGSAGGPILKITLELSPEEIEELAKALGLKVKKVEKEKNKDGKLRVTIYIELKSAGGSAGGSAGGS [r10_999_TrROS_Hall] , please.
3.24

Tell me the measured folding stability dG unfold of SAGGMTIEELLKKNPELKELVKKGYVIEITYPDGKKETIKISEEDLKKILDDIKKKTNKPVEIKILPSAGGS [r16_655_TrROS_Hall] , please.
1.82

Tell me the measured folding stability dG unfold of SAGGLSYIELEVEFPGGGSFEEAKARAEKLAEEVRKKLGLKEVKIEIKKNPDGSYRVKITIKVPSKLSAGGS [r8_3_JUSTAS] , please.
3.04

Tell me the measured folding stability dG unfold of SAGGSAETAIDLGPPNTTGVLEIEYFDENGNTRRATATFDPNPATISFNEPVEIPPNARIEIKPTSSAGGSA [r15_198_TrMRF] , please.
0.857

Tell me the measured folding stability dG unfold of SAGGMIVIEVETEEEALEAARELAKKLLEKLKEEGIEEVTLTVTVEVVDEKTKEVKTYTLTLTVKKPSAGGS [r8_163_TrROS_Hall] , please.
4.19

Tell me the measured folding stability dG unfold of SAGGSAGGSAGGPEVERFRIPGDNVLVEVVRLEDERIARITFPDGSQLTVPLPPGWEAFSAGGSAGGSAGGS [r10_976_TrMRF] , please.
0.851

Tell me the measured folding stability dG unfold of SAGGSAGGSMPFKIDVEVERHPEDNMYQVEITFPGNREIPIMVDDPSDPEKAKNIAKEFAKQLSAGGSAGGS [r12_1012_TrROS] , please.
-0.648

Tell me the measured folding stability dG unfold of SAGGMPENMKWRPIPFTQKNPDGLTLKMKIWVFPDPYILIEHEVEDNGKPVAEIPILLPADDPEDLKSAGGS [r16_714_TrROS] , please.
0.513

Tell me the measured folding stability dG unfold of SAGGSAEIELPEGAKVEVTEVEVDGELYLRMKVVDEETGEVFVMEMRMRPDGEMEMEVKKIPKEELSAGGSA [r15_986_TrROS_Hall] , please.
2.2

Tell me the measured folding stability dG unfold of SAGGAPSTFTSTSPEGETTVTTTTTYYPETGTTTTTTTTTNPATGTSTTTTTTTPVAPPQPPLLEAGASAGG [r13_694_JUSTAS] , please.
1.08

Tell me the measured folding stability dG unfold of SAGGWQKVEFMIEIPGGGSLDQAKDEVEEFADYLRKKAGFKDVDVDVQVDPDGWVYVMVEIEVPPNASAGGS [r8_3_TrROS] , please.
2.24

Tell me the measured folding stability dG unfold of SEEIAKKIADELKKAGYEVVKVEVTYDKETKKVTIKIVVKDKKTNEYYKITIKLNEETGEIVEVKIEKLPSA [r9_814_TrROS_Hall] , please.
4.14

Tell me the measured folding stability dG unfold of SAGGSAGGSMPVTVTVTTPDGTTQTLTADAPPAQTFTVTVTGPDGDPRPVRVTVHGTTVTVEGSAGGSAGGS [r12_784_TrMRF] , please.
0.227

Tell me the measured folding stability dG unfold of SAGGMFLRIEPEDGSRFEIPLNDPSLPLEVVVGLVSKYMDGPVKLKLTLVLPEEEVEYEYEIPLEKKSAGGS [r16_216_TrMRF] , please.
2.37

Tell me the measured folding stability dG unfold of SAGGSTVAKKTTEKDPNSDTTTVTITFPETGVKLTVTVPPGGETTVTLNNGSPPTTLTLPLSVLKLLSAGGS [r8_238_JUSTAS] , please.
0.87

Tell me the measured folding stability dG unfold of SAGGSAGGSPIVVDSPEDIEKAIEEAIASGAKSIVEVGPNRVRVVFVIPGEPKVFVLELPLNGSAGGSAGGS [r12_368_TrMRF] , please.
1.93

Tell me the measured folding stability dG unfold of SAGGSAGGSAGDNYVMITHTIPFPPGEPLEIKIPPGAKIDDIDPERDPGNGTITVSIWFRSAGGSAGGSAGG [r11_701_TrROS] , please.
0.879

Tell me the measured folding stability dG unfold of SAGGMTLDQLKHALRHKKMQIHEPNPNGWYVTFQNPDGKPPTFPVKSDDELRDILRDAPGFEVEVQPVSAGG [r13_600_TrROS] , please.
0.84

Tell me the measured folding stability dG unfold of SAGGSAGGSAGGKLPPGDIIPMEFEAEFPVYKRDPEGGDWEPIGPMRIDFTIIIRLPPGSAGGSAGGSAGGS [r10_1115_TrROS] , please.
2.91

Tell me the measured folding stability dG unfold of STKLLPFEEALKEAEKAIKEGKKKVNITIYTPDGKTFNLTDVEKVKEFIEKEFPGISLSELTVTVSITPPES [r1_325_JUSTAS] , please.
3.53

Tell me the measured folding stability dG unfold of SAGGEVPVSAEAAAAYDRAVAEGGGGATVPVETPGGRVIVYDPAGTATVLGDDPRTFPLAEVTAFAPSAGGS [r16_664_JUSTAS] , please.
0.923
